Reference source: BigSolDB 2.1

Reported Conditions: in ethyl acetate, 303.15 K
Endpoint Name: solubility (mole fraction)
Keep it simple and answer with nothing but the number.

**Q:** Quick one: solubility (mole fraction) of CS(=O)(=O)OCCCCOS(C)(=O)=O ?
**A:** 0.00209

----------
Reported Conditions: in 2-methoxyethanol, 283.15 K
Endpoint Name: solubility (mole fraction)
Could you keep your reply to the number by itself?

**Q:** Entry CS(=O)(=O)OCCCCOS(C)(=O)=O has what solubility (mole fraction)?
**A:** 0.000675

----------
Reported Conditions: in n-propyl acetate, 313.15 K
Endpoint Name: solubility (mole fraction)
Keep the answer to the number alone.

**Q:** I have this molecule here, CS(=O)(=O)OCCCCOS(C)(=O)=O , and I need its recorded solubility (mole fraction).
**A:** 0.00272
